Reference for the values: paper PMC6843921

biological target: mtDUT (Mycobacterium tuberculosis)
Sequence (P9WNS5 whole entry): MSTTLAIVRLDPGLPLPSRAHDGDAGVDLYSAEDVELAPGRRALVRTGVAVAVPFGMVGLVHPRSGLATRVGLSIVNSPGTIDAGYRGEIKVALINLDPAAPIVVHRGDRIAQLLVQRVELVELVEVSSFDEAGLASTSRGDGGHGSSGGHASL
PROPERTY MEASURED: pKd
Note: pKd values are expressed as the negative base-10 logarithm of concentration in M.

The compound listed as O=C(O)CN(CCN(CC(=O)O)CC(=O)O)CC(=O)O [EDTA, ethylene diamine tetraacetic acid] shows pKd equal to 7.11
